Measured pest or weed control at 121.5 g/ha, listed per entry.
Test system: Puccinia triticina
Experiment: Wheat Brown Rust fungicidal activity (PUCCRT)
Type: in vivo
Conditions: 24 h, Low Volume Cereal Activity at 121.5 g/Ha, 1 Day Protectant, read-out: PUCCRT 1DP (Wheat Brown Rust, 1 Day Protectant)

Answered examples (5):
# compound, pest or weed control at 121.5 g/ha
rows = [
    ("COc1ccnc(C(=O)N[C@@H](C)C(=O)O[C@@H](C)[C@H](Oc2cccc(F)c2)c2ccccc2)c1OCOC(C)=O", "> 80%"),
    ("COc1ccnc(C(=O)N[C@@H](C)C(=O)O[C@@H](C)C(Oc2ccccc2)c2nccs2)c1OCOC(C)=O (stereo partly drawn)", "> 80%"),
    ("COc1cc(F)ccc1[C@@H](OC1CC1)[C@H](C)OC(=O)[C@H](C)NC(=O)c1nccc(OC)c1OC(C)=O", "> 80%"),
    ("COc1ccnc(C(=O)N[C@@H](C)C(=O)O[C@@H](C)[C@H](Oc2ccccc2)c2ccc(F)cc2OC(C)=O)c1OC(C)=O", "< 80%"),
    ("COc1ccnc(C(=O)N[C@@H](C)C(=O)O[C@@H](C)[C@H](Oc2ccccc2)c2ccc(F)cc2OCC(F)F)c1OC(C)=O", "> 80%"),
]

For this compound ( COc1cc(C)ccc1[C@@H](Oc1ccc(C)cc1)[C@H](C)OC(=O)[C@H](C)NC(=O)c1nccc(OC)c1OC(C)=O ), measured pest or weed control at 121.5 g/ha is > 80%

* * *

Test system: Phakopsora pachyrhizi
Assay: Asian Soybean Rust fungicidal activity (PHAKPA)
Conditions: Phakopsora pachyrhizi, in Glycine max, 24 h, read-out: PHAKPA 1DP % Control rating, soybean, high volume, 25 ppm, 1 Day Protectant
quantity_measured: pest or weed control at 25 ppm

Answered examples (6):
# compound, recorded_value
data = [
    ("COc1cc(F)ccc1[C@@H](OCC(F)F)[C@H](C)OC(=O)[C@H](C)NC(=O)c1nccc(OC)c1OC(C)=O [Example 294]", "< 80%"),
    ("COc1ccnc(C(=O)N[C@@H](C)C(=O)O[C@@H](C)[C@H](Oc2ccccc2)c2ccc(F)cc2)c1OC(C)=O [Example 242]", "> 80%"),
    ("COc1cc(F)ccc1[C@@H](Oc1ccccc1)[C@H](C)OC(=O)[C@H](C)NC(=O)c1nccc(OC)c1OC(C)=O [Example 269]", "> 80%"),
    ("COc1ccnc(C(=O)N[C@@H](C)C(=O)O[C@@H](C)[C@H](Oc2ccccc2)c2ccc(F)cc2C)c1OCOC(C)=O [Example 259]", "> 80%"),
    ("COc1ccnc(C(=O)N[C@@H](C)C(=O)O[C@@H](C)[C@H](OCC2CC2)c2ccccc2)c1OCOC(C)=O [Example 182]", "> 80%"),
    ("COc1ccnc(C(=O)N[C@@H](C)C(=O)O[C@@H](C)[C@H](Oc2cccc(Cl)c2)c2ccccc2)c1OCOC(C)=O [Example 202]", "> 80%"),
]

The record that follows has no pest or weed control at 25 ppm shown yet.
For this compound ( COc1ccnc(C(=O)N[C@@H](C)C(=O)O[C@@H](C)[C@H](Oc2ccccc2)c2ccc(F)cc2OCC(F)F)c1OC(C)=O [Example 273] ), measured pest or weed control at 25 ppm is < 80%

* * *

System: Puccinia triticina
Assay: Wheat Brown Rust fungicidal activity (PUCCRT)
Assay type: in vivo
Settings: 24 h, Low Volume Cereal Activity at 121.5 g/Ha, 1 Day Protectant, read-out: PUCCRT 1DP (Wheat Brown Rust, 1 Day Protectant)
Procedure: All fungicides were evaluated using the aforementioned method for their activity vs. all target diseases, unless stated otherwise. Wheat leaf blotch and brown rust activity were also evaluated using track spray applications, in which case the fungicides were formulated as EC formulations, containing 0.1% Trycol 5941 in the spray solutions. […] Percent disease control was calculated using the ratio of disease severity on treated plants relative to untreated plants. […]
quantity_measured: pest or weed control at 121.5 g/ha

Answered examples (10):
# molecule, pest or weed control at 121.5 g/ha
data = [
    ("COc1ccnc(C(=O)N[C@@H](C)C(=O)O[C@@H](C)[C@H](Oc2ccccc2Cl)c2ccccc2)c1OC(C)=O", "> 80%"),
    ("COc1ccnc(C(=O)N[C@@H](C)C(=O)O[C@@H](C)[C@H](Oc2ccc(F)cc2)c2ccc(F)cc2)c1OCOC(C)=O", "> 80%"),
    ("CCOc1cc(F)ccc1[C@@H](Oc1ccccc1)[C@H](C)OC(=O)[C@H](C)NC(=O)c1nccc(OC)c1OC(C)=O", "> 80%"),
    ("COc1ccnc(C(=O)N[C@@H](C)C(=O)O[C@@H](C)[C@@H](Oc2ccccc2)c2cccnc2)c1OC(C)=O", "< 0%"),
    ("COc1ccnc(C(=O)N[C@@H](C)C(=O)O[C@@H](C)C(Oc2ccc(F)cc2)c2ccccc2)c1OC(C)=O (stereo partly shown)", "> 80%"),
    ("COc1ccnc(C(=O)N[C@@H](C)C(=O)O[C@@H](C)[C@H](Oc2ccc(Cl)cc2Cl)c2ccccc2)c1OC(C)=O", "> 80%"),
    ("COc1ccnc(C(=O)N[C@@H](C)C(=O)O[C@@H](C)[C@H](Oc2ccccc2)c2ccc(F)cc2F)c1OC(C)=O", "> 80%"),
    ("CC[C@H](NC(=O)c1nccc(OC)c1OC(C)=O)C(=O)O[C@@H](C)[C@H](Oc1cc(F)ccc1F)c1ccccc1", "> 80%"),
    ("COc1ccnc(C(=O)N[C@@H](Cc2ccccc2)C(=O)O[C@@H](C)[C@H](Oc2cccc(F)c2)c2ccccc2)c1OCOC(C)=O", "> 80%"),
    ("COc1ccnc(C(=O)N[C@@H](C)C(=O)O[C@@H](C)[C@H](Oc2ccccc2)c2ccc(C)cc2F)c1OCOC(C)=O", "> 80%"),
]

For this molecule ( CCCOc1cc(F)ccc1[C@@H](Oc1ccccc1)[C@H](C)OC(=O)[C@H](C)NC(=O)c1nccc(OC)c1OC(C)=O ), measured pest or weed control at 121.5 g/ha is > 80%

For this molecule ( COc1ccnc(C(=O)N[C@@H](C)C(=O)O[C@@H](C)[C@H](Oc2ccccc2)c2ccc(F)cc2F)c1OCOC(C)=O ), measured pest or weed control at 121.5 g/ha is > 80%

For this molecule ( COc1ccnc(C(=O)N[C@@H](C)C(=O)O[C@@H](C)[C@@H](Oc2ccccc2)c2cccs2)c1OC(C)=O ), measured pest or weed control at 121.5 g/ha is < 80%

* * *

System: Puccinia triticina
Assay: Wheat Brown Rust fungicidal activity (PUCCRT)
Assay type: in vivo
Conditions: 24 h, Low Volume Cereal Activity at 121.5 g/Ha, 1 Day Protectant, read-out: PUCCRT 1DP (Wheat Brown Rust, 1 Day Protectant)
quantity_measured: pest or weed control at 121.5 g/ha

Answered examples (2):
# record_smiles, pest or weed control at 121.5 g/ha
data = [
    ("COc1ccnc(C(=O)N[C@@H](C)C(=O)O[C@@H](C)[C@H](Oc2ccccc2)c2ccc(F)cc2C)c1OCOC(C)=O", "> 80%"),
    ("COc1ccnc(C(=O)N[C@@H](C)C(=O)O[C@@H](C)[C@H](OCC2CC2)c2ccc(-c3ccccc3)cc2)c1OCOC(C)=O", "> 80%"),
]

The record that follows has no pest or weed control at 121.5 g/ha shown yet.
For this molecule ( COc1cc(F)ccc1[C@@H](OCC1CC1)[C@H](C)OC(=O)[C@H](C)NC(=O)c1nccc(OC)c1OC(C)=O ), measured pest or weed control at 121.5 g/ha is > 80%

* * *

Tested on: Phakopsora pachyrhizi
Experiment: Asian Soybean Rust fungicidal activity (PHAKPA)
Settings: Phakopsora pachyrhizi, in Glycine max, 24 h, read-out: PHAKPA 1DP % Control rating, soybean, high volume, 25 ppm, 1 Day Protectant
quantity_measured: pest or weed control at 25 ppm

Answered examples (2):
# record_smiles, pest or weed control at 25 ppm
data = [
    ("COc1ccnc(C(=O)N[C@@H](C)C(=O)O[C@@H](C)[C@H](Oc2ccccc2)c2ccc(F)cc2Oc2ccccc2)c1OC(C)=O", "< 80%"),
    ("COc1ccnc(C(=O)N[C@@H](C)C(=O)O[C@@H](C)[C@H](Oc2ccccc2Cl)c2ccccc2)c1OCOC(C)=O", "> 80%"),
]

For this compound ( COc1cc(F)ccc1[C@@H](Oc1ccc(C)cc1)[C@H](C)OC(=O)[C@H](C)NC(=O)c1nccc(OC)c1OC(C)=O ), measured pest or weed control at 25 ppm is < 80%

For this compound ( COc1ccnc(C(=O)N[C@@H](C)C(=O)O[C@H](C)[C@@H](Oc2ccccc2)c2ccccc2)c1OCOC(C)=O ), measured pest or weed control at 25 ppm is < 80%

For this compound ( COc1ccnc(C(=O)N[C@@H](C)C(=O)O[C@@H](C)[C@H](OCC(C)C)c2ccccc2)c1OC(C)=O ), measured pest or weed control at 25 ppm is > 80%

For this compound ( COc1cc(F)ccc1[C@@H](Oc1ccc(C)cc1Cl)[C@H](C)OC(=O)[C@H](C)NC(=O)c1nccc(OC)c1OC(C)=O ), measured pest or weed control at 25 ppm is < 80%
